TARGET UNDER TEST: KRas^G12D (Homo sapiens, UniProt P01116, G12D)
Construct: […]; biotin (biotinylated)
Sequence (P01116 1-169 isoform P01116-2 G12D): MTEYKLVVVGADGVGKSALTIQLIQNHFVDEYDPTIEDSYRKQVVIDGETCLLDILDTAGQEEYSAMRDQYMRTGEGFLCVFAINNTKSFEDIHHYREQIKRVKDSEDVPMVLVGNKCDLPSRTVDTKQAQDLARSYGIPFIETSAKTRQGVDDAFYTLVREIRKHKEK
PROTOCOL SUMMARY: KRas binding assay (TR-FRET displacement of Cy5 labelled tracer)
QUANTITY NAME: log10(IC50) (log10 of the value in µM)
Record value = log10 of IC50 given in µM.

Past entries and their recorded results:
compound="CCc1c(F)ccc2cc(O)cc(N3CCc4c(nc(OC[C@@]56CCCN5C[C@H](F)C6)nc4N4CC5CC(O)C5C4)C3)c12 (some centres unmarked)" quantity_name=log10(IC50) value_reported=-1.72
compound="Oc1cc(N2CCc3c(nc(OC[C@@]45CCCN4C[C@H](F)C5)nc3N3CC4CC(O)CC3C4)C2)c2c(Br)c(F)ccc2c1 (single isomer, unassigned) [Example 213]" quantity_name=log10(IC50) value_reported=-1.96
compound=CCc1c(F)ccc2cc(O)cc(N3CCc4c(nc(OC[C@@]56CCCN5C[C@H](F)C6)nc4N4C[C@H]5CC[C@H](O)[C@H]5C4)C3)c12 quantity_name=log10(IC50) value_reported=-0.68
compound=CCc1cccc2cccc(N3CCc4c(nc(OCC56CCCN5CCC6)nc4NCc4nnc(CSC)[nH]4)C3)c12 quantity_name=log10(IC50) value_reported=0.89
compound="CCc1cccc2cccc(N3CCc4c(nc(OCC56CCCN5CCC6)nc4N4CCC(O)CC(CO)C4)C3)c12 (single isomer, unassigned) [Example 173]" quantity_name=log10(IC50) value_reported=0.06
compound="CCc1cccc2cccc(N3CCc4c(nc(OCC56CCCN5CCC6)nc4N4CCCC(C)(O)C4)C3)c12 (centres unmarked)" quantity_name=log10(IC50) value_reported=-1.01

For each of the items listed, what is its log10(IC50)?
1. CCc1cccc2cccc(N3CCc4c(nc(OCC56CCCN5CCC6)nc4N4CCCC(O)CC4)C3)c12 (centres unmarked)
2. CCc1cccc2cccc(N3CCc4c(nc(OCC56CCCN5CCC6)nc4NC4CCNC(=O)C4)C3)c12 (centres unmarked)
3. CCc1cccc2cccc(N3CCc4c(nc(OCC56CCCN5CCC6)nc4N4CCCC(c5cc(=O)[nH][nH]5)C4)C3)c12 (centres unmarked)

[-0.92, 0.24, 0.69]

For each of the items listed, what is its log10(IC50)?
1. CCc1cccc2cccc(N3CCc4c(nc(OCC56CCCN5CCC6)nc4NCc4cccnc4-n4cncn4)C3)c12
2. CN1CCC[C@H]1COc1nc2c(c(N3CCCC4(CC(=O)N4)C3)n1)CCN(c1cccc3cccc(Cl)c13)C2 (some centres unmarked)
3. Oc1cc(N2CCc3c(nc(OC[C@@]45CCCN4C[C@H](F)C5)nc3N3CCOCC(n4cccn4)C3)C2)c2c(Br)c(F)ccc2c1 (some centres unmarked)
4. CCc1c(F)ccc2cc(O)cc(N3CCc4c(nc(OC[C@@]56CCCN5C[C@H](F)C6)nc4N4CCOCC(n5cccn5)C4)C3)c12 (some centres unmarked)
5. CCc1cccc2cccc(N3CCc4c(nc(OCC56CCCN5CCC6)nc4N4CCCC(N5CC(C)CS5(=O)=O)C4)C3)c12 (centres unmarked)
6. CCc1c(F)ccc2cc(O)cc(N3CCc4c(nc(OC[C@@]56CCCN5C[C@H](F)C6)nc4NCc4cccnc4N)C3)c12

1.02
-0.12
-2.40
-2.52
-0.03
-1.59
